Reference source: patent US8466161B2

# Tested on: HL60 cell line
# testSummary: Inhibitory effect on growth of HL60 cell line (MTT)
# Type: cell-based
# conditions: Homo sapiens, HL-60, 72 h, 3 days culture
pIC50: −log10 of the molar value.
readout: pIC50

// known answers, use as guide
structureAsSmiles: O=C(CCCCCCN(C(=O)N1CCOCC1)c1ccc(-c2ccc3cc[nH]c3c2)cc1)NO
targetEntity: HL60 cell line
pIC50: 7.70 to 8.00

structureAsSmiles: CN1CCN(C(=S)N(CCCCCCC(=O)NO)c2ccc(-c3ccc4c(cnn4C)c3)cc2)CC1
targetEntity: HL60 cell line
pIC50: 7.30 to 7.70

structureAsSmiles: CS(=O)(=O)N(CCCCCCC(=O)NO)c1ccc(-c2ccc3[nH]ccc3c2)cc1
targetEntity: HL60 cell line
pIC50: 7.70 to 8.00

structureAsSmiles: CN1CCN(C(=O)N(CCCCCCC(=O)NO)c2ccc(-c3ccc4c(cnn4C)c3)cc2)CC1
targetEntity: HL60 cell line
pIC50: 7.30 to 7.70

structureAsSmiles: O=C(CCCCCCN(C(=O)c1ccccn1)c1ccc(-c2ccc3cc[nH]c3c2)cc1)NO
targetEntity: HL60 cell line
pIC50: 7.00 to 7.30

Take each entry in turn and give its pIC50.
1. CN1CCN(C(=O)N(CCCCCCC(=O)NO)c2ccc(-c3ccc4cc[nH]c4c3)cc2)CC1
2. CCNC(=O)N(CCCCCCC(=O)NO)c1ccc(-c2ccc3cc[nH]c3c2)cc1
3. CN(C)CC(=O)N(CCCCCCC(=O)NO)c1ccc(-c2ccc3cc[nH]c3c2)cc1

Reply:
1: 7.70 to 8.00; 2: 7.00 to 7.30; 3: 7.00 to 7.30

----------
# testSummary: Maximum tolerated dose in the HCT116 xenograft experiments
# conditions: BALB/c nude, mouse, in vivo, ip
readout: MTD at 2 weeks (mg/kg)
Numbers only, in mg/kg.

The reported value for O=C(/C=C/c1cccc(S(=O)(=O)Nc2ccccc2)c1)NO [PXD 101, Belinostat, reference compound] in terms of MTD at 2 weeks is 80

----------
# Tested on: HL60 cell line
# testSummary: Inhibitory effect on growth of HL60 cell line (MTT)
# Format: cell-based
# conditions: Homo sapiens, HL-60, 72 h, 3 days culture
pIC50: −log10 of the molar value.
readout: pIC50

// known answers, use as guide
compound: O=C(CCCCCCN(C(=O)c1ccccn1)c1ccc(-c2ccc3[nH]ccc3c2)cc1)NO
pIC50: 7.30 to 7.70
//
compound: CCN1CCN(C(=O)N(CCCCCCC(=O)NO)c2ccc(-c3ccc4c(cnn4C)c3)cc2)CC1
pIC50: 7.30 to 7.70
//
compound: O=C(CCCCCCN(c1ccc(-c2ccc3cc[nH]c3c2)cc1)S(=O)(=O)c1cccnc1)NO
pIC50: 7.30 to 7.70
//
compound: CCS(=O)(=O)N(CCCCCCC(=O)NO)c1ccc(-c2ccc3[nH]ccc3c2)cc1
pIC50: 7.30 to 7.70
//
compound: Cc1[nH]c2ccccc2c1CCNCc1ccc(/C=C/C(=O)NO)cc1 [LBH 589, Panobinostat, reference compound]
pIC50: 7.30 to 7.70
//
compound: CCN1CCN(C(=O)N(CCCCCCC(=O)NO)c2ccc(-c3ccc4[nH]ccc4c3)cc2)CC1
pIC50: 7.70 to 8.00

We now examine a further compound.
The reported value for "CN1CCN(S(=O)(=O)N(CCCCCCC(=O)NO)c2ccc(-c3ccc4cnn(C)c4c3)cc2)CC1" in terms of pIC50 is 7.30 to 7.70
